measured_target: human plasmin (Homo sapiens)
Sequence (P00747 581-810 limits assumed): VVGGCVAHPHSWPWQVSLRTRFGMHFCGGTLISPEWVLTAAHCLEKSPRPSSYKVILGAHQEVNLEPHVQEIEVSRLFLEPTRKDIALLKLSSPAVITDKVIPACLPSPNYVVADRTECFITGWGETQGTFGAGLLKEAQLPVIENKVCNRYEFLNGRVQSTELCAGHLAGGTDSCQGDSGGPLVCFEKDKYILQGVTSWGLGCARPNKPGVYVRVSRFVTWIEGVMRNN
Sequence (P00747 97-580 limits assumed): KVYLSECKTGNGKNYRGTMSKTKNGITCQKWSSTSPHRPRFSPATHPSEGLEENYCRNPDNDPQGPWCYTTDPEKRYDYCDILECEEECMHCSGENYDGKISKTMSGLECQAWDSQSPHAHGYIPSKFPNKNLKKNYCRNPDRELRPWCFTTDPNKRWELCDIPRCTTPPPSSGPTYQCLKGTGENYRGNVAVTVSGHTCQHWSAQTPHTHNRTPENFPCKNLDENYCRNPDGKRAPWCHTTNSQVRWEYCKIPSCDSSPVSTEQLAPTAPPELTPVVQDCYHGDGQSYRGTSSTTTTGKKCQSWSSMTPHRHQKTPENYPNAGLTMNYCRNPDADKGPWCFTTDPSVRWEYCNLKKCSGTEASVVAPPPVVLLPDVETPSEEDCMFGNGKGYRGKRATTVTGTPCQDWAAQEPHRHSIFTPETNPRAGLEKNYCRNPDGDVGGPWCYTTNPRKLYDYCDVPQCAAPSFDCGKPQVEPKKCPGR
assay_text: Antiplasmin activity: inhibition of fibrin decomposition
Type: biochemical
condition_description: Table 2, pH 7.4, 37° C., read-out: Plasmin Fibrin I50 (concentration doubling fibrin dissolution time)
pIC50: −log10 of the molar value. Where a name gives a salt, the structure may show the parent alone.
observed_property: pIC50

{"compound": "NC[C@H]1CC[C@H](C(=O)NC(Cc2cccc(Oc3ccc(Br)cn3)c2)C(=O)N2CCOCC2)CC1 (some centres unmarked) [Compound 27]", "measured_target": "human plasmin (Homo sapiens)", "pIC50": 3.36}

P = Cc1ccc(NC(=O)C(Cc2cccc(Oc3ccccc3)c2)NC(=O)[C@H]2CC[C@H](CN)CC2)cc1 (some centres unmarked) [Compound 1]
Q = CCOC(=O)C1CCCCN1C(=O)C(Cc1cccc(Oc2ccc(Br)cn2)c1)NC(=O)[C@H]1CC[C@H](CN)CC1 (some centres unmarked) [Compound 26]
Min pIC50? P | Q Your answer should be the label attached to the chosen record.
Q

P = CCOC(=O)C(Cc1cccc(Oc2ccccc2)c1)NC(=O)[C@H]1CC[C@H](CN)CC1 (mixture of isomers) [Compound 57, hydrochloride]
Q = CCOC(=O)c1cccc(NC(=O)C(Cc2cccc(Oc3ccccc3)c2)NC(=O)[C@H]2CC[C@H](CN)CC2)c1 (some centres unmarked) [Compound 3]
R = COCCCNC(=O)C(Cc1cccc(Oc2ccc(Br)cn2)c1)NC(=O)[C@H]1CC[C@H](CN)CC1 (mixture of isomers) [Compound 25, hydrochloride]
Put these in order: smallest pIC50 first, largest last. I'd appreciate it if you listed the labels in the requested order.
R, P, Q
(R: 3.35, P: 3.96, Q: 4.96)

P = NC[C@H]1CC[C@H](C(=O)NC(Cc2cccc(Oc3ccccc3)c2)C(=O)Nc2ccncn2)CC1 (mixture of isomers) [Compound 12, dihydrochloride]
Q = NC[C@H]1CC[C@H](C(=O)NC(Cc2cccc(Oc3ccccc3)c2)C(=O)N2CCC(C(=O)O)CC2)CC1 (some centres unmarked) [Compound 17]
Which item exceeds the other in pIC50, P or Q ? Your answer should be the label attached to the chosen record.
P

====

measured_target: human plasma kallikrein (Homo sapiens, UniProt P03952)
Sequence (P03952 391-638 limits assumed): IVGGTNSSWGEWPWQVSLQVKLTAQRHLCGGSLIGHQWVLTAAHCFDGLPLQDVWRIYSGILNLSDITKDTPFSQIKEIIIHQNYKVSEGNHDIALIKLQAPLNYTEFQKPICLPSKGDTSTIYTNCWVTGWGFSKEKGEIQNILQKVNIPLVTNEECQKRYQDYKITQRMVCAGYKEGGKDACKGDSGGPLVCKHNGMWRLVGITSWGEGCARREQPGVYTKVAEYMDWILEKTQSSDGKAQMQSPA
Sequence (P03952 20-390 limits assumed): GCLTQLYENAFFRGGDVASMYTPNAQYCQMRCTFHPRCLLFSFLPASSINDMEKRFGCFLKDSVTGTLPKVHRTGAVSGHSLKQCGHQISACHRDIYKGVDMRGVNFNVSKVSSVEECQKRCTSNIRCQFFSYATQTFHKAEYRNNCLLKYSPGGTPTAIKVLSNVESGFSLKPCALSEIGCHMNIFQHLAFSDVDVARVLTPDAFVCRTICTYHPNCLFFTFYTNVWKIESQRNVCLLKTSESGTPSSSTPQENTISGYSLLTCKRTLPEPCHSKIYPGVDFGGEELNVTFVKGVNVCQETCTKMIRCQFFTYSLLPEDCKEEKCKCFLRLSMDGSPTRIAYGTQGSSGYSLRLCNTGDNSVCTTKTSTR
assay_text: Anti-plasma kallikrein activity: inhibition of S-2302 decomposition
Assay type: biochemical
condition_description: Table 2; substrate S-2302, pH 7.8, 37° C.; read-out: Plasma Kallikrein S-2302 I50
Counter-ions that a name gives are not always drawn.
observed_property: IC50 (µM)

{"compound": "Cc1ccc(NC(=O)C(Cc2cccc(Oc3ccccc3)c2)NC(=O)[C@H]2CC[C@H](CN)CC2)cc1 (some centres unmarked) [Compound 1]", "units_text": "µM", "measured_value": 1.3}
{"compound": "NC[C@H]1CC[C@H](C(=O)NC(Cc2cccc(Oc3ccccc3)c2)C(=O)O)CC1 (mixture of isomers) [Compound 58]", "units_text": "µM", "measured_value": 600}
{"compound": "NC[C@H]1CC[C@H](C(=O)NC(Cc2cccc(Oc3ccccc3)c2)C(=O)Nc2cccnc2)CC1 (some centres unmarked) [Compound 7]", "units_text": "µM", "measured_value": 2}
{"compound": "CC(=O)c1ccc(NC(=O)C(Cc2cccc(Oc3ccccc3)c2)NC(=O)[C@H]2CC[C@H](CN)CC2)cc1 (mixture of isomers) [Compound 2, hydrochloride]", "units_text": "µM", "measured_value": 0.38}
{"compound": "CCOC(=O)C1CCN(C(=O)C(Cc2cccc(Oc3ccccc3)c2)NC(=O)c2ccc(NC(=N)N)cc2)CC1 (racemic) [Compound 34]", "units_text": "µM", "measured_value": 270}
{"compound": "COCCCNC(=O)C(Cc1cccc(Oc2ccc(Br)cn2)c1)NC(=O)[C@H]1CC[C@H](CN)CC1 (mixture of isomers) [Compound 25, hydrochloride]", "units_text": "µM", "measured_value": 500}
{"compound": "CC(=O)c1ccc(NC(=O)C(Cc2cccc(Oc3ccccc3)c2)NC(=O)c2ccc(NC(=N)N)cc2)cc1 (centres unmarked) [Compound 32]", "units_text": "µM", "measured_value": 2.2}
{"compound": "NC[C@H]1CC[C@H](C(=O)NC(Cc2cccc(Oc3ccccc3)c2)C(=O)Nc2ccncc2)CC1 (mixture of isomers) [Compound 8, dihydrochloride]", "units_text": "µM", "measured_value": 0.83}

A = COCCCNC(=O)C(Cc1cccc(C(=O)c2ccccc2)c1)NC(=O)[C@H]1CC[C@H](CN)CC1 (some centres unmarked) [Compound 23]
B = NC[C@H]1CC[C@H](C(=O)NC(Cc2cccc(Oc3ccccc3)c2)C(=O)Nc2ccncn2)CC1 (mixture of isomers) [Compound 12, dihydrochloride]
Min IC50? A | B Your answer should be the label attached to the chosen record.
B

I = NC[C@H]1CC[C@H](C(=O)NC(Cc2cccc(Oc3ccccc3)c2)C(=O)Nc2ncc[nH]2)CC1 (some centres unmarked) [Compound 11]
II = CCOC(=O)c1cccc(NC(=O)C(Cc2cccc(Oc3ccccc3)c2)NC(=O)[C@H]2CC[C@H](CN)CC2)c1 (some centres unmarked) [Compound 3]
Min IC50? I | II Your answer should be the label attached to the chosen record.
II
(II: 1.2 µM, I: 190 µM)

P = N=C(N)Nc1ccc(C(=O)NC(Cc2cccc(Oc3ccccc3)c2)C(=O)Nc2ccc(CC(=O)O)cc2)cc1 (racemic) [Compound 36, hydrochloride]
Q = COCCCNC(=O)C(Cc1cccc(Oc2ccccc2)c1)NC(=O)[C@H]1CC[C@H](CN)CC1 (mixture of isomers) [Compound 14, hydrochloride]
Which item exceeds the other in IC50, P or Q ? Your answer should be the label attached to the chosen record.
Q
(Q: 340 µM, P: 1.9 µM)

Where these numbers come from: patent US4873253A
